System: UACC-62 melanoma
Method description: NCI-60 one-dose screen, 48 h
Test settings: 10 µM unless noted
Compounds without any hit were thinned out: in the full panel of roughly 83,000, 20% have a hit. Activity calls are given as the source filed them. How the source made its calls: active means growth percent below 10; inactive means the rest.
Mark one answer only. Choices: y for active, n for inactive

Observe how each entry below is paired with its result.
| Molecule | Classification |
| --- | --- |
| Cn1c(COC(=O)NC2CCCCC2)c(COC(=O)NC2CCCCC2)c2ccc3cc(Cl)c(Cl)cc3c21 | y |
| O=C1C=CC(=O)c2c(O)c(CO)c(CO)c(O)c21 | n |
| CN(C)c1ccc2cc3c(cc2c1)Oc1ccccc1N3.[Cl][Zn][Cl] | n |
| C/C(=N\NC(=S)N1CC2CCC(CC2)C1)c1ccccn1 | y |
| CCN(CC)CCNc1ccc([N+](=O)[O-])c2sc3ccccc3c(=O)c12 | n |

Query string: Given CCCCCCCCCCCC1N=C(N)N=C(N)N1c1cccc(Br)c1 (configuration not stated) , state the outcome it received in this test.
Result string: n

Query string: // query: COC(=O)[C@]1(C)CCC[C@]2(C)c3ccc(C(C)C)cc3C(=O)[C@@H](Br)[C@@H]12
Result string: n

Query string: Same again, this time with Cc1cc(=O)oc2cc(O)cc(O)c12
Result string: n

Query string: Note, next up: CC(C)c1ccc(Nc2n[nH]c(=S)s2)cc1
Result string: n

Query string: Another molecule to look at: CCC1C[N+]2=C(c3cc(OC)c(OC)cc3CC2)c2c1cc1n2CCc2cc(OC)c(OC)cc2-1 (configuration not stated)
Result string: n

Query string: Can you handle NNc1cccc([N+](=O)[O-])c1 next?
Result string: n

Query string: Now give it for Nc1ccc(Oc2ccccc2)c(Cl)c1 too.
Result string: n

Query string: Also O=C(c1ccccc1)C(Br)C(Br)c1ccccc1 (configuration not stated) , if possible.
Result string: n
